Collected IC50 values appear next to each entry.
Biological target: T1, murine NRP1 (mouse, UniProt P97333)
T1 chain: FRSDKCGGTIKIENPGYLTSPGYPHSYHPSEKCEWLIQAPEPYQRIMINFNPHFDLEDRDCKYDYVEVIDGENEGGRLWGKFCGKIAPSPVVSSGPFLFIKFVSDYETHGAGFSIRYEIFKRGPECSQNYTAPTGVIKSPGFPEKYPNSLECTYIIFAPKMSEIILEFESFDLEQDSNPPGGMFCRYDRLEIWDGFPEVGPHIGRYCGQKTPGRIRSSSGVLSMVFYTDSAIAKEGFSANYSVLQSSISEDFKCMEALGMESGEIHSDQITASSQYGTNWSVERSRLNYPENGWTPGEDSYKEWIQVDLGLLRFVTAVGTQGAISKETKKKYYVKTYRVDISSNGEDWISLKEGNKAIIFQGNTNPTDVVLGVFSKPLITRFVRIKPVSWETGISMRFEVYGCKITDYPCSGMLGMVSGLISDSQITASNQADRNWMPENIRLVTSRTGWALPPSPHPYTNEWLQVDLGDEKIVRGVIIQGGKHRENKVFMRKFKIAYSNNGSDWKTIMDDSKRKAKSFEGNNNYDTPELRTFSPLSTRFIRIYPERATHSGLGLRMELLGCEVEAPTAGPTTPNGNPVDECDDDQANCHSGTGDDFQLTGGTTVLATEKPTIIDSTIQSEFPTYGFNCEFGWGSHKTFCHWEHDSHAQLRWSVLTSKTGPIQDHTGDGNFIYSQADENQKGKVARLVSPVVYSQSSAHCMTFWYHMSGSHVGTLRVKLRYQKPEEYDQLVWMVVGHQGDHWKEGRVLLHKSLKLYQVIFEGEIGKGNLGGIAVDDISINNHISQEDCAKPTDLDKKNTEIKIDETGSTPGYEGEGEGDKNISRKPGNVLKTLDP
Experiment: competition phage ELISA
Return type: number; implicit unit nM.

Known IC50 results, listed for orientation:
YW107.4.41 (antibody, V domains shown) VH: EVQLVESGGGLVQPGGSLRLSCAASGFTFSSYAMSWVRQAPGKGLEWVSQISPAGGYTNYADSVKGRFTISADTSKNTAYLQMNSLRAEDTAVYYCARELPYYRMSKVMDVWGQGTLVTVSS VL: DIQMTQSPSSLSASVGDRVTITCRASQWTHSYLAWYQQKPGKAPKLLIYGASRLESGVPSRFSGSGSGTDFTLTISSLQPEDFATYYCQQYFISPHTFGQGTKVEIKR; 5.5
YW107.4.76a (antibody, V domains shown) VH: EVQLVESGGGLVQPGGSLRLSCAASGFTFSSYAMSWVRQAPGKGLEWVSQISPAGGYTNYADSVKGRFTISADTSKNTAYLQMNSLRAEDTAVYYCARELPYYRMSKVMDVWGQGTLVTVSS VL: DIQMTQSPSSLSASVGDRVTITCRASQYISSYLAWYQQKPGKAPKLLIYGASRRASGVPSRFSGSGSGTDFTLTISSLQPEDFATYYCQQYLRSPHTFGQGTKVEIKR; 0.8
YW107.4.17 (antibody, V domains shown) VH: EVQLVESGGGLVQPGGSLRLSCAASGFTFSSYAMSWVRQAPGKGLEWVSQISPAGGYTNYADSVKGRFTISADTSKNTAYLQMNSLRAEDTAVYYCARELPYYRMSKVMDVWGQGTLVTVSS VL: DIQMTQSPSSLSASVGDRVTITCRASQYTHSYLAWYQQKPGKAPKLLIYGASSRASGVPSRFSGSGSGTDFTLTISSLQPEDFATYYCQQYYSSPVTFGQGTKVEIKR; 6

Recorded result, YW107.4.85 (antibody, V domains shown) VH: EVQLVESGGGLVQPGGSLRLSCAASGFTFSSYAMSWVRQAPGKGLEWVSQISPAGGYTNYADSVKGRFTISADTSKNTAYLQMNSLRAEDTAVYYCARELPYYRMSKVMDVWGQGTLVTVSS VL: DIQMTQSPSSLSASVGDRVTITCRASQYISSYLAWYQQKPGKAPKLLIYGASSGESGVPSRFSGSGSGTDFTLTISSLQPEDFATYYCQQYIISPITFGQGTKVEIKR , IC50: 4

Lab book: IC50 of YW107.4.66 (antibody, V domains shown) VH: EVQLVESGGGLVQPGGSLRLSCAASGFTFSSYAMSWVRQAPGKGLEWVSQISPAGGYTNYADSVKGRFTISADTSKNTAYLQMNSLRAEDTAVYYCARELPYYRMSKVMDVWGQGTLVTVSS VL: DIQMTQSPSSLSASVGDRVTITCRASQYISSYLAWYQQKPGKAPKLLIYGASSRASGVPSRFSGSGSGTDFTLTISSLQPEDFATYYCQQYIVSPLTFGQGTKVEIKR noted as 2.6

response.value for YW107.4.20 (antibody, V domains shown) VH: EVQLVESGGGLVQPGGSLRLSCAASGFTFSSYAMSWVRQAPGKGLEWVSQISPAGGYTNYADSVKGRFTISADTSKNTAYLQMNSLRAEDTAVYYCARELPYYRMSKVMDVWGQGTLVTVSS VL: DIQMTQSPSSLSASVGDRVTITCRASQRTHSYLAWYQQKPGKAPKLLIYGASSRASGVPSRFSGSGSGTDFTLTISSLQPEDFATYYCQQYYGSPHTFGQGTKVEIKR (field: IC50) = 33

What the record says about YW107.4.55 (antibody, V domains shown) VH: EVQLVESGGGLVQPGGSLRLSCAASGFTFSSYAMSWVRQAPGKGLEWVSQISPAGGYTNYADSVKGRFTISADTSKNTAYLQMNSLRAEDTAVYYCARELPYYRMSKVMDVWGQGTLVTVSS VL: DIQMTQSPSSLSASVGDRVTITCRASQLTHSYLAWYQQKPGKAPKLLIYGASSRASGVPSRFSGSGSGTDFTLTISSLQPEDFATYYCQQYYSSPLTFGQGTKVEIKR : IC50 is 2

// recorded IC50 for YW107.4.54 (antibody, V domains shown) VH: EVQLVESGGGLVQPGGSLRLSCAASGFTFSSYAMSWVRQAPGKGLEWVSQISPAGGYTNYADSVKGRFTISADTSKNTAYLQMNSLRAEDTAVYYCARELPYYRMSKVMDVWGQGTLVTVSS VL: DIQMTQSPSSLSASVGDRVTITCRASQPLHSYLAWYQQKPGKAPKLLIYGASSRASGVPSRFSGSGSGTDFTLTISSLQPEDFATYYCQQYYRSPLTFGQGTKVEIKR : 2.7

Record YW107.4.58 (antibody, V domains shown) VH: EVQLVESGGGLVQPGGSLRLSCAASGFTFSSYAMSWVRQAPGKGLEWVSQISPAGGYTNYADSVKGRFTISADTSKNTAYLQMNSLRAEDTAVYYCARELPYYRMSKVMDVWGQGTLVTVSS VL: DIQMTQSPSSLSASVGDRVTITCRASQYISSYLAWYQQKPGKAPKLLIYGASSRASGVPSRFSGSGSGTDFTLTISSLQPEDFATYYCQQYKSSPRTFGQGTKVEIKR , field IC50: 3.5

Lab note: YW107.4 (antibody, V domains shown) VH: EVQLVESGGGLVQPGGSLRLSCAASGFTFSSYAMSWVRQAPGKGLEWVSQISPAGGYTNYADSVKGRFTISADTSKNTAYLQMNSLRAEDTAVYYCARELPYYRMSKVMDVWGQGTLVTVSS VL: DIQMTQSPSSLSASVGDRVTITCRASQSISSYLAWYQQKPGKAPKLLIYGASSRASGVPSRFSGSGSGTDFTLTISSLQPEDFATYYCQQYYSSPLTFGQGTKVEIKR gave IC50 of 38

Ref: patent US8211429
